- protocol: Solid stability experiment (high temperature, high humidity, light)
- Format: physicochemical
- conditions: solid, High humidity of RH 92.5%, day 20; read-out: Increase of total impurities
Counter-ions that a name gives are not always drawn.
readout type: degraded at 480 h

# degraded at 480 h (compound: CNC[C@@H]1OCC2(CC2)c2sccc21 [Hydrochloride crystal form I] ) is < 0.1%

====

- protocol: Solid stability experiment (high temperature, high humidity, light)
- Type: physicochemical
- conditions: solid, Illumination of 5000 lx, day 85; read-out: Increase of total impurities
Structures can show the parent of a compound that is named as a salt.
readout type: degraded at 2040 h

Reported degraded at 2040 h ( CNC[C@@H]1OCC2(CC2)c2sccc21 [Hydrochloride crystal form I] ) = < 0.1%

====

- protocol: Solid stability experiment (high temperature, high humidity, light)
- Type: physicochemical
- conditions: solid, High temperature of 60 °C, day 10; read-out: Increase of total impurities
Structures can show the parent of a compound that is named as a salt.
readout type: degraded at 240 h

degraded at 240 h reading for CNC[C@@H]1OCC2(CC2)c2sccc21 [Hydrochloride crystal form II] : < 0.1%

====

- protocol: Solid stability experiment (high temperature, high humidity, light)
- Assay type: physicochemical
- conditions: solid, High humidity of RH 92.5%, day 10; read-out: Increase of total impurities
- From the text: Investigating the chemical stability of each hydrochloride crystal form of Compound A under high temperature, high humidity, and light conditions. […]
Counter-ions that a name gives are not always drawn.
readout type: degraded at 240 h

Short answer for CNC[C@@H]1OCC2(CC2)c2sccc21 [Hydrochloride crystal form I] : degraded at 240 h was < 0.1%

====

- protocol: Solid stability experiment (high temperature, high humidity, light)
- Assay type: physicochemical
- conditions: solid, Illumination of 5000 lx, day 20; read-out: Increase of total impurities
Structures can show the parent of a compound that is named as a salt.
readout type: degraded at 480 h

CNC[C@@H]1OCC2(CC2)c2sccc21 [Hydrochloride crystal form I] has a reported degraded at 480 h of < 0.1%

====

- protocol: Solid stability experiment (high temperature, high humidity, light)
- Type: physicochemical
- conditions: solid, High temperature of 60 °C, day 85; read-out: Increase of total impurities
- Text: Investigating the chemical stability of each hydrochloride crystal form of Compound A under high temperature, high humidity, and light conditions. […]
Where a name gives a salt, the structure may show the parent alone.
readout type: degraded at 2040 h
Number plus unit, in that order.

// degraded at 2040 h lookup, compound = CNC[C@@H]1OCC2(CC2)c2sccc21 [Hydrochloride crystal form II] , result: 0.133%

====

- protocol: Solid stability experiment (high temperature, high humidity, light)
- Type: physicochemical
- conditions: solid, High humidity of RH 92.5%, day 85; read-out: Increase of total impurities
Counter-ions that a name gives are not always drawn.
readout type: degraded at 2040 h (%)
State just the number; it will be interpreted in %.

Per the record, CNC[C@@H]1OCC2(CC2)c2sccc21 [Hydrochloride crystal form I] has degraded at 2040 h of 0.199

All values here come from patent US20260355151A1.
